ASSAYED_SYSTEM: Vasopressin V1a receptor (Homo sapiens)
Sequence (P37288 whole entry): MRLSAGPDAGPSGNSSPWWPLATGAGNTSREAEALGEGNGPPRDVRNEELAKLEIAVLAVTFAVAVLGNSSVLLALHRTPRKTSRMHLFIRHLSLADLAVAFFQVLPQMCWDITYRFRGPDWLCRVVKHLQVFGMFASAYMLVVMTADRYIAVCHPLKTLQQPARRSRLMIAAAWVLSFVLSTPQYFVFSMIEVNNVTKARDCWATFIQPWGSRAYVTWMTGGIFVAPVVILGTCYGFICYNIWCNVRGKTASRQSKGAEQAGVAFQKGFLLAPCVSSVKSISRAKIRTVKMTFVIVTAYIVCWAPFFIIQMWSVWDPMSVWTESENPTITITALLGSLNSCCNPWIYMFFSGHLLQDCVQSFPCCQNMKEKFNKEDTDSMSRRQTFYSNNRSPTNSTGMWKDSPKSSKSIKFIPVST
ASSAY_NOTES: Displacement of [125I]- HO-LVA from human Vasopressin V1a receptor in membranes of CHO cells
Format: cell membranes
pKi: −log10 of the molar value. Where a SMILES comes first, the peptide text is derived from it. [ ]: non-standard residue; d: D form. The star is where a group is joined. X1 = O=C(Cc1ccc(O)cc1)*
ATTRIBUTE_MEASURED: pKi

COMPOUND	ASSAYED_SYSTEM	MEAS_VALUE
COc1ccc(C[C@@H](NC(=O)Cc2ccc(O)cc2)C(=O)N[C@@H](Cc2ccccc2)C(=O)N[C@@H](CCC(N)=O)C(=O)N[C@@H](CC(N)=O)C(=O)N[C@@H](CCCN=C(N)N)C(=O)N2CCC[C@H]2C(=O)N[C@@H](CCCN=C(N)N)C(N)=O)cc1 (X1-[dY](Me)FQNRPR-NH2)	Vasopressin V1a receptor (Homo sapiens)	10.10
COc1ccc(C[C@@H](NC(=O)CCc2ccc(O)cc2)C(=O)N[C@@H](Cc2ccccc2)C(=O)N[C@@H](CCC(N)=O)C(=O)N[C@@H](CC(N)=O)C(=O)N[C@@H](CCCCNC(=O)c2ccc3c(c2)C(=O)OC32c3ccc(N(C)C)cc3Oc3cc(N(C)C)ccc32)C(=O)N2CCC[C@H]2C(=O)N[C@@H](CCCNC(=N)N)C(N)=O)cc1	Vasopressin V1a receptor (Homo sapiens)	8.89
COc1ccc(C[C@@H](NC(=O)CCc2ccc(O)cc2)C(=O)N[C@@H](Cc2ccccc2)C(=O)N[C@@H](CCC(N)=O)C(=O)N[C@@H](CC(N)=O)C(=O)N[C@@H](CCCNC(=N)N)C(=O)N2CCC[C@H]2C(=O)N[C@@H](CCCCNC(=O)c2ccc3c(c2)C(=O)OC32c3ccc(O)cc3Oc3cc(O)ccc32)C(N)=O)cc1	Vasopressin V1a receptor (Homo sapiens)	9.77
COc1ccc(C[C@@H](NC(=O)CCc2ccc(O)cc2)C(=O)N[C@@H](Cc2ccccc2)C(=O)N[C@@H](CCC(N)=O)C(=O)N[C@@H](CC(N)=O)C(=O)N[C@@H](CCCCNC(=O)c2ccc3c(c2)C(=O)OC32c3ccc(O)cc3Oc3cc(O)ccc32)C(=O)N2CCC[C@H]2C(=O)N[C@@H](CCCNC(=N)N)C(N)=O)cc1	Vasopressin V1a receptor (Homo sapiens)	8.25
COc1ccc(C[C@@H](NC(=O)CCc2ccc(O)cc2)C(=O)N[C@@H](Cc2ccccc2)C(=O)N[C@@H](CCC(N)=O)C(=O)N[C@@H](CC(N)=O)C(=O)N[C@@H](CCCNC(=N)N)C(=O)N2CCC[C@H]2C(=O)N[C@@H](CCCCNC(=O)c2ccc3c(c2)C2(OC3=O)c3ccc(N(C)C)cc3Oc3cc(N(C)C)ccc32)C(N)=O)cc1	Vasopressin V1a receptor (Homo sapiens)	9.77
COc1ccc(C[C@@H](NC(=O)CCc2ccc(O)cc2)C(=O)N[C@@H](Cc2ccccc2)C(=O)N[C@@H](CCC(N)=O)C(=O)N[C@@H](CC(N)=O)C(=O)N[C@@H](CCCNC(=N)N)C(=O)N2CCC[C@H]2C(=O)N[C@@H](CCCCNC(=O)c2ccc3c(c2)C2(OC3=O)c3ccc(O)cc3Oc3cc(O)ccc32)C(N)=O)cc1	Vasopressin V1a receptor (Homo sapiens)	9.64
COc1ccc(C[C@@H](NC(=O)CCc2ccc(O)cc2)C(=O)N[C@@H](Cc2ccccc2)C(=O)N[C@@H](CCC(N)=O)C(=O)N[C@@H](CC(N)=O)C(=O)N[C@@H](CCCCNC(=O)c2ccc3c(c2)C2(OC3=O)c3ccc(N(C)C)cc3Oc3cc(N(C)C)ccc32)C(=O)N2CCC[C@H]2C(=O)N[C@@H](CCCNC(=N)N)C(N)=O)cc1	Vasopressin V1a receptor (Homo sapiens)	8.48
COc1ccc(C[C@@H](NC(=O)CCc2ccc(O)cc2)C(=O)N[C@@H](Cc2ccccc2)C(=O)N[C@@H](CCC(N)=O)C(=O)N[C@@H](CC(N)=O)C(=O)N[C@@H](CCCNC(=N)N)C(=O)N2CCC[C@H]2C(=O)N[C@@H](CCCCNC(=O)c2ccc3c(c2)C(=O)OC32c3ccc(N(C)C)cc3Oc3cc(N(C)C)ccc32)C(N)=O)cc1	Vasopressin V1a receptor (Homo sapiens)	10.15

# credit: ChEMBL document CHEMBL1132193
